Target: T1, recombinant human OX40L (extracellular domain, R&D Systems) (human, UniProt P23510 51-183)
T1 construct: also called hOX40L; rec. hOX40L
T1 sequence: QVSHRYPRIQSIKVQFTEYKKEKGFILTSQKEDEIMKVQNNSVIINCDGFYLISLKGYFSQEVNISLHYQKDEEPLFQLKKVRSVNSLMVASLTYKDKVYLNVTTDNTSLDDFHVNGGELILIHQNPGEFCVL
Test: SPR, after second injection of buffer HBS-EP+
assayMetric: Binding Level sample 2 - sample 1 (RU)
Write it as a number; the unit RU goes unstated.

Name the recorded Binding Level sample 2 - sample 1 (RU) of the binder listed here: OX40L19A07 (VHH, monovalent Nanobody from E. coli; not shown: C-terminal c-myc and His6 tag) VHH: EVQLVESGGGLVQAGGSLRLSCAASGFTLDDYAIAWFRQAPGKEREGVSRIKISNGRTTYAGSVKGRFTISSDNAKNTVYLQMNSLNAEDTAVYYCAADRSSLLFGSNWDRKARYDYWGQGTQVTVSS
-15

Name the recorded Binding Level sample 2 - sample 1 (RU) of the binder listed here: OX40L15B07 (VHH, monovalent Nanobody from E. coli; not shown: C-terminal c-myc and His6 tag) VHH: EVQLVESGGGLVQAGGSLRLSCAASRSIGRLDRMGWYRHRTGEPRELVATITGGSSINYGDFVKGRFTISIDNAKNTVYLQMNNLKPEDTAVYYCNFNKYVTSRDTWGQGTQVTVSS
-40

Name the recorded Binding Level sample 2 - sample 1 (RU) of the binder listed here: OX40L01E07 (VHH, monovalent Nanobody from E. coli; not shown: C-terminal c-myc and His6 tag) VHH: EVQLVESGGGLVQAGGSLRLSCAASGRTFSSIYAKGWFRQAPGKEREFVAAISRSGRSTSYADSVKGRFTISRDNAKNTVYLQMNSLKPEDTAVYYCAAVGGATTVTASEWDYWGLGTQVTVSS
-9

Name the recorded Binding Level sample 2 - sample 1 (RU) of the binder listed here: OX40L01E10 (VHH, monovalent Nanobody from E. coli; not shown: C-terminal c-myc and His6 tag) VHH: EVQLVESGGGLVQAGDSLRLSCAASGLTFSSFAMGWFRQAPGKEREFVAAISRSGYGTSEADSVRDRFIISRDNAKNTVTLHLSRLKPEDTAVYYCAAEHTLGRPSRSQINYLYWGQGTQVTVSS
-26

Name the recorded Binding Level sample 2 - sample 1 (RU) of the binder listed here: OX40L01B11 (VHH, monovalent Nanobody from E. coli; not shown: C-terminal c-myc and His6 tag) VHH: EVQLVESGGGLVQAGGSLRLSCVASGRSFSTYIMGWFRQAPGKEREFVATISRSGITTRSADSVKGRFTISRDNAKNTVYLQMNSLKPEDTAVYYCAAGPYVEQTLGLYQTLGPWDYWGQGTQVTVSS
-57
